Items are presented alongside their recorded pIC50.
Test system: MDA-MB-231
Assay: Antimigratory activity against human MDA-MB-231 cells after 24 hrs by wound healing assay
Details: MDA-MB-231, 24 h
Just so you know, pIC50 here is -log10 of the concentration in molar units; reply with that number alone.

Given the compound `O=C(Cc1ccc(O)c(O)c1)OCCc1ccc(O)cc1` , what is its reported pIC50?
4.38

Given the compound C=C[C@@H]1[C@H](O)OC=C(C(=O)OC)[C@H]1CC(=O)OCCc1ccc(O)cc1 [LIGSTROSIDE AGLYCONE] , what is its reported pIC50?
4.86

Given the compound `COc1cc(/C=C/C(=O)OCCc2ccc(O)cc2)cc(OC)c1OC` , what is its reported pIC50?
4.33

Given the compound COc1cc(C(=O)OCCc2ccc(O)cc2)cc(OC)c1O [TYROSOL SYRINGATE] , what is its reported pIC50?
4.71

###

Tested on: MCF-10A
Experiment: Cytotoxicity against human MCF10A cells at IC50 in wound healing assay after 24 hrs by MTT assay
Format: cell-based
reported endpoint: Activity

[[record]]
compound = "CCn1cc(C(=O)OCCc2ccc(O)cc2)c(=O)c2ccc(C)nc21"
measured_on = "MCF-10A"
observed_result = "Non-toxic"

[[record]]
compound = "Cc1ccc(S(=O)(=O)NC(=O)OCCc2ccc(O)cc2)cc1 [4-HYDROXYPHENETHYL TOSYLCARBAMATE]"
measured_on = "MCF-10A"
observed_result = "Non-toxic"

[[record]]
compound = "O=C(NCc1ccccc1)OCCc1ccc(O)cc1"
measured_on = "MCF-10A"
observed_result = "Non-toxic"

